Catalogue of IC50 readings, one per entry.
# test.target: Nitric oxide synthase (endothelial, human recombinant) eNOS (Homo sapiens (Human), UniProt P29474)
# test: Human eNOS enzyme assay ([3H]-L-arginine to L-citrulline conversion)
Where a name gives a salt, the structure may show the parent alone.
Note: unit µM is implicit; provide only the numeric part.

Reference set (4 entries):
[[record]]
molecule = "CCNCCN1CCOc2cc(NC(=N)c3cccs3)ccc21 [Compound 7, dihydrochloride]"
reported_result = 10.4

[[record]]
molecule = "CNCCN1CCSc2cc(NC(=N)c3cccs3)ccc21"
reported_result = 33.5

[[record]]
molecule = "N=C(Nc1ccc2c(c1)SCCN2CCCN1CCCC1)c1cccs1"
reported_result = 10

[[record]]
molecule = "CN(C)CCN1CCOc2cc(NC(=N)c3cccs3)ccc21"
reported_result = 41.7


What does the record list as IC50 for CN(C)CCN1CCSc2cc(NC(=N)c3cccs3)ccc21 [Compound 12, dihydrochloride] ?
19.1

Which IC50 is listed for `CN(C)CCN1C(=O)COc2cc(NC(=N)c3cccs3)ccc21` ?
47

What value of IC50 has been recorded for this entry: `CNCCN1CCSc2cc(NC(=N)c3ccco3)ccc21`
46.4

Return reported IC50; argument: `CN(C)CCN1CCSc2cc(NC(=N)c3ccco3)ccc21`
94.7

###

# test.target: Nitric oxide synthase (neuronal, human recombinant) nNOS (Homo sapiens (Human), UniProt P29475)
# test: Human nNOS enzyme assay ([3H]-L-arginine to L-citrulline conversion)
# Type: biochemical
# setup.conditions: recombinant human nNOS
Where a name gives a salt, the structure may show the parent alone.
measured.property: IC50 (nM)
Your answer should be a plain number; it is taken to be in nM.

[[record]]
molecule = "CN(C)CCCN1CCSc2cc(NC(=N)c3cccs3)ccc21"
reported_result = 14


# query: IC50 of entry N=C(Nc1ccc2c(c1)SCCN2CCNCCO)c1cccs1 [Compound 16, dihydrochloride]
34

Returns the measured IC50 for the input molecule. Input: CCNCCN1CCOc2cc(NC(=N)c3cccs3)ccc21 [Compound 7, dihydrochloride]
1060

For `CCNCCN1CCSc2ccc(NC(=N)c3cccs3)cc21` , what is its reported IC50?
50

Dear colleague, I am looking for the recorded IC50 of the following molecule: `N=C(Nc1ccc2c(c1)SCCN2CCN1CCCCC1)c1cccs1`
140

Consider the molecule `CN(C)CCN1CCOc2cc(NC(=N)c3cccs3)ccc21` and give its measured IC50.
200

# input molecule: `N=C(Nc1ccc2c(c1)SCCN2CCCN1CCCC1)c1cccs1` ; wanted: its IC50
140

Could you share which IC50 value was measured for `CNCCN1CCSc2cc(NC(=N)c3ccco3)ccc21` ?
160

Report IC50 for `N=C(Nc1ccc2c(c1)N(CCN1CCCC1)CCS2)c1cccs1` please.
200

###

# test.target: Nitric oxide synthase (neuronal, human recombinant) nNOS (Homo sapiens (Human), UniProt P29475)
# test: Human nNOS enzyme assay ([3H]-L-arginine to L-citrulline conversion)
# setup.conditions: recombinant human nNOS
measured.property: log10(IC50) (log10 of the value in nM)
In plain terms, each number is the log10 of measured IC50 in nM.

A selection of reference data follows.
[[record]]
compound = "CCN(CC)CCN1CCSc2cc(NC(=N)c3cccs3)ccc21 [Compound 15]"
reported_result = 2.18

[[record]]
compound = "N=C(Nc1ccc2c(c1)OCC(=O)N2CCN1CCCC1)c1cccs1 [Compound 3]"
reported_result = 2.93

[[record]]
compound = "CN(C)CCN1C(=O)COc2cc(NC(=N)c3cccs3)ccc21 [Compound 5]"
reported_result = 3.26

[[record]]
compound = "CN1CCCC1CCN1CCSc2cc(NC(=N)c3cccs3)ccc21 (centres unmarked) [Compound 13]"
reported_result = 2.28


Now turn to the next compound.
Can you share its log10(IC50)? I mean this compound: CN(C)CCN1CCSc2cc(NC(=N)c3ccco3)ccc21 [Compound 19]
2.15

###

# test.target: Recombinant human inducible NOS (iNOS) (Homo sapiens (Human), UniProt P35228)
# test: Human iNOS enzyme assay (Protocol 1 or Protocol 2, radiometric)
# Type: biochemical
Counter-ions that a name gives are not always drawn.
measured.property: log10 IC50 (log10 of the value in µM)
A difference of one corresponds to tenfold IC50; all values are log10 with IC50 in µM.

Consider the following illustrative entries.
[[record]]
compound = "N=C(Nc1ccc2c(c1)SCCN2CCCN1CCCC1)c1cccs1"
test_target = "Recombinant human inducible NOS (iNOS) (Homo sapiens (Human), UniProt P35228)"
measured_property = "log10 IC50"
reported_result = 1.70

[[record]]
compound = "CN1CCCC1CCN1CCSc2cc(NC(=N)c3cccs3)ccc21 (stereo not shown)"
test_target = "Recombinant human inducible NOS (iNOS) (Homo sapiens (Human), UniProt P35228)"
measured_property = "log10 IC50"
reported_result = 1.52

[[record]]
compound = "CNCCN1CCOc2ccc(NC(=N)c3cccs3)cc21 [Compound 10, dihydrochloride]"
test_target = "Recombinant human inducible NOS (iNOS) (Homo sapiens (Human), UniProt P35228)"
measured_property = "log10 IC50"
reported_result = 0.57

[[record]]
compound = "CN(C)CCN1CCSc2cc(NC(=N)c3cccs3)ccc21 [Compound 12, dihydrochloride]"
test_target = "Recombinant human inducible NOS (iNOS) (Homo sapiens (Human), UniProt P35228)"
measured_property = "log10 IC50"
reported_result = 1.80


Give Recombinant human inducible NOS (iNOS) (Homo sapiens (Human), UniProt P35228) log10 IC50 for `N=C(Nc1ccc2c(c1)N(CCN1CCCC1)CCS2)c1cccs1`
1.64

# returns recorded log10 IC50 (system: Recombinant human inducible NOS (iNOS) (Homo sapiens (Human), UniProt P35228)) for `CN(C)CCN1CCSc2cc(NC(=N)c3ccco3)ccc21`
2.13

Param readout = log10 IC50; param system = Recombinant human inducible NOS (iNOS) (Homo sapiens (Human), UniProt P35228); param query = `N=C(Nc1ccc2c(c1)N(C1CCNCC1)CCS2)c1cccs1` ; response: value
1.89

###

# test.target: Nitric oxide synthase (neuronal, human recombinant) nNOS (Homo sapiens (Human), UniProt P29475)
# test: Human nNOS enzyme assay ([3H]-L-arginine to L-citrulline conversion)
# Format: biochemical
# setup.conditions: recombinant human nNOS
Where a name gives a salt, the structure may show the parent alone.
measured.property: pIC50
Just the number, please; pIC50 means minus log10 of the concentration in mol/L.

[[record]]
molecule = "N=C(Nc1ccc2c(c1)N(C1CCNCC1)CCS2)c1cccs1"
measured_property = "pIC50"
reported_result = 6.96

[[record]]
molecule = "CN(CCN1CCSc2cc(NC(=N)c3cccs3)ccc21)CC(=O)O [Compound 17, dihydrochloride]"
measured_property = "pIC50"
reported_result = 5.94

[[record]]
molecule = "CN(C)CCN1CCSc2cc(NC(=N)c3cccs3)ccc21 [Compound 12, dihydrochloride]"
measured_property = "pIC50"
reported_result = 6.92

[[record]]
molecule = "N=C(Nc1ccc2c(c1)SCCN2CCN1CCC[C@H]1C(=O)O)c1cccs1 [Compound 18, dihydrochloride]"
measured_property = "pIC50"
reported_result = 6.18

[[record]]
molecule = "CN(C)CCN1CCOc2ccc(NC(=N)c3cccs3)cc21"
measured_property = "pIC50"
reported_result = 6.70


Look up pIC50 for this molecule: `CNCCN1CCSc2cc(NC(=N)c3cccs3)ccc21`
7.22

Using the record for CNCCN1CCOc2ccc(NC(=N)c3cccs3)cc21 [Compound 10, dihydrochloride] , report its pIC50.
7.10

I would be grateful if you could share the reported pIC50 for `N=C(Nc1ccc2c(c1)SCCN2CCN1CCCC1)c1cccs1` .
6.62

###

Below, each of the compounds is paired with its reported pIC50 value.
# test.target: Nitric oxide synthase (endothelial, human recombinant) eNOS (Homo sapiens (Human), UniProt P29474)
# test: Human eNOS enzyme assay ([3H]-L-arginine to L-citrulline conversion)
Counter-ions that a name gives are not always drawn.
Quick note: pIC50 means taking -log10 of the concentration in moles per liter.

Known pIC50 results, listed for orientation:
[[record]]
compound = "CN(C)CCN1CCOc2ccc(NC(=N)c3cccs3)cc21"
reported_result = 4.44

[[record]]
compound = "CCN(CC)CCN1CCSc2cc(NC(=N)c3cccs3)ccc21"
reported_result = 4.70

[[record]]
compound = "N=C(Nc1ccc2c(c1)SCCN2CCN1CCC[C@H]1C(=O)O)c1cccs1 [Compound 18, dihydrochloride]"
reported_result = 4.90

[[record]]
compound = "CNCCCN1CCSc2cc(NC(=N)c3cccs3)ccc21"
reported_result = 4.73

[[record]]
compound = "CN(C)CCCN1CCSc2cc(NC(=N)c3cccs3)ccc21"
reported_result = 4.92


So what's the measured pIC50 for this one? `N=C(Nc1ccc2c(c1)SCCN2CCN1CCCC1)c1cccs1`
4.61

For the compound `N=C(Nc1ccc2c(c1)N(CCNCCO)CCS2)c1cccs1` , what pIC50 is on record?
5.07

Query: pIC50; subject: `N=C(Nc1ccc2c(c1)OCCN2CCN1CCCC1)c1cccs1`
4.60
